# Test system: HOP-62 NSCLC
# run-description: NCI-60 one-dose screen, 48 h
# test-parameters: 10 µM unless noted
This is part of a sample that, as a whole, favours compounds with a hit. Of some 83,000 tested, about 20% had one in any assay. Active and inactive are the calls of the source. How the source made its calls: active means growth percent below 10; inactive means the rest.
Outcomes you can answer with include only these: active, inactive

# compound, discrete-label
measured = [
    ("CC(=O)N/C(=C1/OC(C(O)C(O)C(O)CO)CN1C)[P+](c1ccccc1)(c1ccccc1)c1ccccc1 (stereo unspecified)", "inactive"),
]

Q: Could you kindly confirm the outcome this assay logged for "CC[C@H](Nc1nc(N)nc(C)c1C#N)c1nc2cccc(NCCCCCC(=O)NO)c2c(=O)n1-c1ccccc1" ?
Ans: inactive

Q: Could you kindly confirm the outcome this assay logged for CC1=CCC[C@@H]2C1(C)CC[C@H](C)[C@@]2(C)CC1=CC(=O)C(SC(C)(C)C)=CC1=O (stereo partly specified) ?
Ans: inactive

Q: Could you kindly confirm the outcome this assay logged for "CCN(CC)CCN(CCN(CC)CC)c1ccccc1" ?
Ans: inactive

Q: Could you kindly confirm the outcome this assay logged for "CC1=C(C(=O)n2c3ccccc3c3ccccc32)C(c2cccc([N+](=O)[O-])c2)C(C(=O)n2c3ccccc3c3ccccc32)=C(C)N1" ?
Ans: inactive

Q: Could you kindly confirm the outcome this assay logged for "Cc1nn(-c2ccccc2)c(N2CCCCC2)c1/C=N/NC(=O)Cn1c(=O)sc2ccccc21" ?
Ans: inactive
